Target: BRD4 (BD1) (Homo sapiens (Human))
Assay: In vitro BRD4 (BD1) enzymatic activity assay (HTRF)
Details: GST-BRD4 (BD1, 44-168 aa)
parameter: IC50 (nM)

INSERT INTO measurements (compound, parameter, readout_value) VALUES
  ('Cn1cc(-c2cc(N=S(C)(C)=O)ccc2OCC2CCOC2)c2cc[nH]c2c1=O (stereo not drawn)', 'IC50', 4.1);

(1) Cc1ncccc1Oc1ccc(N=S(C)(C)=O)cc1-c1cn(C)c(=O)c2[nH]ccc12
(2) Cc1cccc(Cl)c1Oc1ccc(N=S(C)(C)=O)cc1-c1cn(C)c(=O)c2[nH]ccc12
Between 1 and 2 , which one shows the smaller IC50 number? To answer, give the label that identifies your chosen option. 1

---

Assay: Animal pharmacokinetic study on compounds
Format: in vivo
Conditions: rat, po; male rats, single intragastric administration, 5 mg/kg, plasma
parameter: Cmax (ng/mL)

INSERT INTO measurements (compound, parameter, readout_value) VALUES
  ('Cn1cc(-c2cc(N=S(C)(C)=O)cnc2Oc2ccc(F)cc2F)c2cc[nH]c2c1=O [Example 4]', 'Cmax', 459),
  ('Cn1cc(-c2cc(N=S(C)(C)=O)ccc2Oc2ccc(F)cc2F)c2cc[nH]c2c1=O [Example 5]', 'Cmax', 610);
